system: MDA-MB-231; test: Antiproliferative activity against human MDA-MB-231 cells by MTT assay; assay type: functional, cell-based
quantity.name: pIC50
Just so you know, pIC50 here is -log10 of the concentration in molar units; reply with that number alone.

Known pIC50 results, listed for orientation:
O=C(O)c1ccc(COc2ccc(/C=C3\SC(=S)N(c4ccc(Br)cc4)C3=O)cc2)cc1 : 4.70
Cc1cccc(C)c1N1C(=O)/C(=C/c2ccc(OCc3ccc(C(=O)O)cc3)cc2)SC1=S : 4.59

# input for lookup
What the record says about Cc1cc2c(C(C)C)c(O)c(O)c(C=O)c2c(O)c1-c1c(C)cc2c(C(C)C)c(O)c(O)c(C=O)c2c1O : pIC50 is 5.32

Source of measurements: ChEMBL document CHEMBL3627699
